- Target: Concanavalin-A (Canavalia ensiformis) (UniProt P02866)
- Sequence (P02866 whole entry, looked up): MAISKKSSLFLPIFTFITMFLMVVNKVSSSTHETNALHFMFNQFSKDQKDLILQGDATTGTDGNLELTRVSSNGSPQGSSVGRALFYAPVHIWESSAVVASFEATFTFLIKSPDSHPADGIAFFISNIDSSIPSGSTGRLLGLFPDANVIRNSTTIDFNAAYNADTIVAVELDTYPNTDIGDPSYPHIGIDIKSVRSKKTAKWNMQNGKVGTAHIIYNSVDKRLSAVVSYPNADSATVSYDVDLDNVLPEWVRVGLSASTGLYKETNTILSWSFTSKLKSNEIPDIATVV
- Assay details: compounds binding concanavalin A lectin – biochemical, small-molecule microarray, Alexa647 label, 635 nm, artefact control for SMM control protein annotation, primary screen (AID 1127);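 further: z combines 667 nm emission intensity with signal-to-noise across three replicate slides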
- Experimental parameters: ConA-A647 binding fluorescence, higher = more signal
Measured endpoint: composite z-score
API doc: respond with a numeric literal and nothing else, no unit.

Lab note: `COc1ccc([Si](C)(C)[C@@H]2[C@@H](CCn3cc(CCO)nn3)O[C@]3(C(=O)N(Cc4cccc(N5C(=O)c6cccc7cccc5c67)c4)c4ccccc43)[C@H]2C)cc1` gave composite z-score of 0.833

Lab note: `COCCOC(=O)N1C(=O)[C@@]2(c3ccccc31)[C@H](C(=O)N1CCCCCCC1)[C@H]1C(=O)O[C@H](c3ccccc3)[C@H](c3ccccc3)N1[C@@H]2c1ccc(OCCO)cc1` gave composite z-score of 1.28

Lab note: `COCCOC(=O)N1C(=O)[C@@]2(c3cc(C#CC4(O)CCCCCC4)ccc31)[C@H](C(=O)Nc1nc3ccccc3s1)[C@H]1C(=O)O[C@H](c3ccccc3)[C@H](c3ccccc3)N1[C@@H]2c1ccccc1OCCO` gave composite z-score of 1.16
